Sourced from ChEMBL document CHEMBL1201862

- Tested on: XF498
- assay explanation: NCI tumour cell line growth inhibition, 48 h
Active and inactive are the calls of the source. No stated cut-off is given here; in the data, active = GI50 up to about 1.1 µM and inactive = higher.
Respond using exactly one of the listed classes: 1 (active), -1 (inactive)

Field: example entries. Status: answers known.
compound | assigned label
C/C(CC(=O)Nc1ccc(Cl)c(Cl)c1)=N/NC(=O)C[N+](C)(C)C | -1
CCCN1C(=O)C/C(=C\C(C)=O)Nc2ccccc21 | -1
CCCCCCCCCCCCCC(=O)OC1C(O)C(CO)OC(OC)C1NC(=O)N(CCCl)N=O (configuration not stated) | -1
Cc1ccc(NC(=O)OCC(COc2ccc(Cl)cc2)OC(=O)Nc2ccc(C)cc2)cc1 (configuration not stated) | -1
COc1ccccc1-n1c(N)c2c(C)c(-c3ccccc3)[nH]c2nc1=S | -1
C=C1C(C)C2C(Cc3ccccc3)NC(=O)C23C(OC(C)=O)/C=C/C(C)(O)CC(C)C/C=C/C3C1O (configuration not stated) | 1

Next compound, please.
State the result this test recorded for O=C1CCC23CC(C=CC=C12)n1c(=O)n(-c2ccccc2)c(=O)n13 (configuration not stated) .
-1

---

- Test system: COLO 205
- assay explanation: NCI tumour cell line growth inhibition, 48 h
Active and inactive are the calls of the source. Rule as the data show it: active = GI50 up to about 1.1 µM and inactive = higher.
Respond using exactly one of the listed classes: active, inactive

Field: example entries. Status: answers known.
compound | assigned label
c1cc(-c2ccc(-c3nc4ccc(C5=NCCN5)cc4s3)s2)ccc1C1=NCCN1 | active
Clc1ccc(-c2ccc(-c3nnc(COc4ccc(OCc5nnc(-c6ccc(-c7ccc(Cl)cc7Cl)o6)o5)c(Cl)c4)o3)o2)c(Cl)c1 | inactive
COc1ccc(C2C3=C(COC3=O)OC(C)(C)Oc3cc4c(cc32)OCO4)cc1 (configuration not stated) | inactive
CCCCNC(=O)N/C=C1\C(=O)Oc2ccccc2C1=O | inactive
CN(C)CCCCC1CCN(CC(=O)N2c3ccccc3NC(=O)c3ccccc32)CC1 | inactive
Nc1nc(Cl)nc(NCc2ccccc2)n1 | inactive

State the result this test recorded for `CCOC(=O)c1ccc(-c2onc(C)c2Br)[nH]1` .
inactive

Same lookup for `COc1ccccc1C1(c2c(OC(C)C)c(=O)c2=O)SCCCS1` , please.
inactive

Same lookup for CCc1cccc(C)c1NC(=O)CC1C(=O)Nc2ccccc2[S+]1[O-] (configuration not stated) , please.
inactive

Same lookup for O=C(O)C1CCN(Cc2oc(CO)cc(=O)c2O)C1 (configuration not stated) , please.
inactive

Same lookup for `COc1cccc(NC(=O)/C(Cc2nc3ccccc3nc2C)=N/NC(=O)C[n+]2ccccc2)c1` , please.
inactive

Same lookup for `Oc1ccc(-c2c3ccccc3c(-c3ccc(OCCBr)cc3)c3ccccc23)cc1` , please.
inactive

Same lookup for COC(=O)C(CC(C)C)NC(=O)C(NC(=O)c1ccc(-c2ccc(Cl)cc2Cl)o1)C(C)C (configuration not stated) , please.
inactive

Same lookup for `COC(=O)NN=C(c1ccc(Cl)cc1)c1ccc(Cl)cc1` , please.
inactive

Same lookup for C=C1C(C)C2C(Cc3ccccc3)NC(=O)C23C(OC(C)=O)/C=C/C(C)(O)CC(C)C/C=C/C3C1O (configuration not stated) , please.
active

Same lookup for `CC(=O)N1c2ccccc2[C@H]2CCc3c([nH]c4ccccc34)[C@H]21` , please.
inactive

Same lookup for CCCCC1C=Cn2c(=O)oc3c(OC(C)C)c(C)c(O)c1c32 (configuration not stated) , please.
inactive

Same lookup for O=C(O)C1C2C=CC(O2)C1C(=O)NCc1ccncc1 (configuration not stated) , please.
inactive

Same lookup for CCOC12SC(Nc3ccc(C)cc3)=NN1C(=S)N(C)N=C2C (configuration not stated) , please.
inactive

Same lookup for O=C1C2Cc3ccccc3CN2C(=O)N1CCN1CCOCC1 (configuration not stated) , please.
inactive

Same lookup for `O=C(c1ccccc1)c1c(-c2ccccc2)sc2nc3ccccc3nc12` , please.
inactive

Same lookup for `ClC1(c2ccccc2)c2ccc(Br)cc2-c2cc(Br)ccc21` , please.
inactive

Same lookup for N#Cc1ccc(C2Oc3ccc(Cl)cc3C=C2[N+](=O)[O-])cc1 (configuration not stated) , please.
active

Same lookup for `COc1ccc(CCN2COc3ccc4ccc(=O)oc4c3C2)cc1OC` , please.
inactive

Same lookup for `COc1ccc2nc(-c3ccccn3)cc(O)c2c1` , please.
inactive

Same lookup for `CCNC(=S)/N=c1\sc(NCC)nc2sc3c(c12)CCN(N1CCc2c(sc4nc(NCC)s/c(=N\C(=S)NCC)c24)C1)C3` , please.
inactive

---

- System: HOP-92
- assay explanation: NCI tumour cell line growth inhibition, 48 h
The source made the active and inactive calls. No stated cut-off is given here; in the data, active = GI50 up to about 1.1 µM and inactive = higher.
So I've got a bunch of molecules here, and I need their GI50 values.

Please review the following examples before continuing.
molecule | value measured
COc1ccccc1-n1c(N)c2c(C)c(-c3ccccc3)[nH]c2nc1=S | > 100 µM (inactive)
CCNC(=S)/N=c1\sc(NCC)nc2sc3c(c12)CCN(N1CCc2c(sc4nc(NCC)s/c(=N\C(=S)NCC)c24)C1)C3 | 5.31 µM (inactive)
COc1cc(=O)oc(/C=C/C=C/C=C/C(C)=C\C2(C)OC(C)C(C)(O)C2O)c1C (stereo not given) | > 100 µM (inactive)

Can you give me GI50 for all of these, one by one?
1. COc1nncc2[nH]c(-c3ccccc3)cc12
2. O=C(c1ccccc1)c1oc2ccc(Br)cc2c1-c1cnn(-c2ccccc2)c1

1. > 100 µM (inactive)
2. > 100 µM (inactive)

---

- Tested on: IGROV-1
- assay explanation: NCI tumour cell line growth inhibition, 48 h
The source made the active and inactive calls. Cut-off read from the data, not from the text of the source: active = GI50 up to about 1.1 µM and inactive = higher.
Respond using exactly one of the listed classes: True for active, False for inactive

Field: example entries. Status: answers known.
molecule | assigned label
O=C(O)C1C2C=CC(O2)C1C(=O)NCc1ccncc1 (stereo not given) | False
COc1cc(C2c3cc4c(cc3OC3(OC)COC(=O)C23)OCO4)cc(OC)c1OC(C)=O (stereo not given) | False
COc1ccc2nc3ccccc3c(NCCCCCN(CCCl)CCCl)c2c1 | True
COC(=O)[C@H]1[C@H]2C[C@@H]3c4[nH]c5cc(OC)ccc5c4CCN3C[C@H]2C[C@@H](OC(=O)c2cc(OC)c(OC)c(OC)c2)[C@@H]1OC [RESERPINE] | False
Cc1ccc([S+]([O-])C(C)C(Cl)c2ccccc2)cc1 (stereo not given) | False
O=C(O)C1=C(C(=O)Nc2ccc(NC(=O)C3=C(C(=O)O)C4C=CC3C4)cc2)C2C=CC1C2 | False
COc1nc(C)nc2c1ncn2Cc1ccccc1 | False
CC12CCC(C1)C(C)(C)C2OC(=O)c1ccccc1C(=O)O (stereo not given) | False

State the result this test recorded for CCOC12SC(Nc3ccc(C)cc3)=NN1C(=S)N(C)N=C2C (stereo not given) .
False

---

- System: SK-MEL-28
- assay explanation: NCI tumour cell line growth inhibition, 48 h
Activity calls are given as the source filed them. Cut-off read from the data, not from the text of the source: active = GI50 up to about 1.1 µM and inactive = higher.
So I've got a bunch of compounds here, and I need their GI50 values.

Please review the following examples before continuing.
compound | GI50
Cc1ccc(-c2cn3c(nc4ccccc43)c(-c3ccccc3)n2)cc1 | > 100 µM (inactive)
COc1cc(/C=C2\N=C(c3ccccc3)N(c3nc4ccc(Sc5ccccc5)cc4[nH]3)C2=O)cc(OC)c1OC | 24 µM (inactive)
Clc1ccc(-c2ccc(-c3nnc(COc4ccc(OCc5nnc(-c6ccc(-c7ccc(Cl)cc7Cl)o6)o5)c(Cl)c4)o3)o2)c(Cl)c1 | > 100 µM (inactive)
CC12CC(c3ccccc3O1)C(C(=O)Nc1ccc(Cl)cc1Cl)C(=O)N2 (centres undefined) | 72.8 µM (inactive)
COc1ccc(C(=O)CC(c2ccccc2)[C@H]2C(c3ccc(OC)cc3)=Nc3c(nc(SC)n(C)c3=O)NC2c2ccccc2)cc1 (some centres undefined) | > 100 µM (inactive)

Can you give me GI50 for all of these, one by one?
1. O=C(O)C1=C(C(=O)Nc2ccc(NC(=O)C3=C(C(=O)O)C4C=CC3C4)cc2)C2C=CC1C2
2. N#Cc1ccc(C2Oc3ccc(Cl)cc3C=C2[N+](=O)[O-])cc1 (centres undefined)
3. O=c1c(-c2ccc(Cl)cc2)nnc2n(Cc3ccccc3)c3ccccc3n12
4. Nc1c2cc3ccc2nc2ccc(cc12)OCCOCCOCCOCCOCCOCCO3
5. C[C@@H]1CC[C@H]2[C@H]1[C@H]1[C@@H](CC[C@]2(C)N=C=S)C1(C)C
6. N/N=c1\c2ccccc2c2cc3c(cc12)/c(=N/N)c1ccccc13
7. CC1(C)CCC[C@]2(C)[C@@H]1CC[C@@]13O[C@@H]1C1=C(CO)C(=O)O[C@]14O[C@@H]4[C@@H]23
8. O=C1C(c2ccc([N+](=O)[O-])cc2)=[N+]([O-])c2ccccc21

> 100 µM (inactive)
1.82 µM (inactive)
51.6 µM (inactive)
> 10 µM (inactive)
21.1 µM (inactive)
> 100 µM (inactive)
15.6 µM (inactive)
29.3 µM (inactive)

Can you give me GI50 for all of these, one by one?
1. CCOC(=O)/C=C(/C(=O)OCC)n1ccc(=O)n(/C(=C/C(=O)OCC)C(=O)OCC)c1=O
2. CCc1n[nH]c(=O)n1N=C(c1ccccc1)c1ccccc1
3. Cc1c2cccc-2ccc2c1[nH]c1ccccc12
4. CCOc1cc2c(cc1O)/C(=N/NS(=O)(=O)c1ccc(C)cc1)C[C@@H]1[C@@H]2CC[C@]2(C)[C@@H](O)CC[C@@H]12

1. 13.1 µM (inactive)
2. > 100 µM (inactive)
3. 1.75 µM (inactive)
4. > 100 µM (inactive)

Can you give me GI50 for all of these, one by one?
1. COC(=O)C(=O)C(C#N)c1c(Cl)cccc1Cl (centres undefined)
2. C=CC1(c2ccc(-c3ccccc3)cc2)OCCO1

1. > 100 µM (inactive)
2. > 100 µM (inactive)
